Tested on: Mus musculus
Test: Increase in locomotor activity in reserpinized mice following 0.4 umol/kg i.p.
Assay type: functional
// thresholds for Locomotor activity classes: low class = under 10, middle class = from 10 up to 20, high class = 20 and over

Sort into band: CCCN1CC[C@@H]2c3cccc(O)c3CC[C@H]21 (racemic) high class

Sort into band: C=CCN1CC[C@H]2c3cccc(O)c3CC[C@H]21 (racemic) low class

Sort into band: C=CCN1CC[C@H]2c3cccc(OC)c3CC[C@H]21 middle class

Sort into band: C=CCN1CC[C@@H]2c3cccc(O)c3CC[C@H]21 (racemic) middle class

Sort into band: CCCN1CC[C@H]2c3ccccc3CC[C@H]21 (racemic) middle class

Sort into band: C=CCN1CCC2c3cccc(O)c3CC[C@@H]21 (single isomer, unassigned; (+)) middle class

Sort into band: C=CCN1CCC2c3c(cccc3OC)CC[C@@H]21 (single isomer, unassigned; (+)) low class

Sort into band: C=CCN1CC[C@@H]2c3c(cccc3OC)CC[C@H]21 (racemic) high class

Sort into band: CCCN1CC[C@@H]2c3ccccc3CC[C@H]21 (racemic) high class

---

Test system: Mus musculus
Experiment: Maximum decrease in temperature when compound is administered through peroral route
Format: functional
I'd be grateful if you could share measured Max temperature decrease for these entries.
Give the value as a plain number.

Give me measured Max temperature decrease, please, for this molecule: C=CCN1CC[C@H]2c3c(cccc3OC)CC[C@H]21 (racemic) 3.6

Give me measured Max temperature decrease, please, for this molecule: CCCN1CC[C@@H]2c3c(O)cccc3CC[C@@H]21 5.5

Give me measured Max temperature decrease, please, for this molecule: CCCN1CCC2c3c(O)cccc3CCC21 (racemic) 2.6

Give me measured Max temperature decrease, please, for this molecule: C=CCN1CC[C@H]2c3ccccc3CC[C@H]21 (racemic) 4

Give me measured Max temperature decrease, please, for this molecule: CCCN1CC[C@H]2c3c(O)cccc3CC[C@H]21 7.3

Give me measured Max temperature decrease, please, for this molecule: CCCN1[C@@H]2CCc3cccc(OC)c3C2C[C@@H]1C (mixture of isomers) 3

Give me measured Max temperature decrease, please, for this molecule: CCCN1[C@H](C)CC2c3c(cccc3OC)CC[C@H]21 (mixture of isomers) 2.4

Give me measured Max temperature decrease, please, for this molecule: CCCN1CCC2c3c(cccc3OC)CCC21 (racemic) 6

---

Test system: Felis catus
Assay: Maximum decrease of arterial blood pressure at sympathetic nerve activity (SND) in anesthetized cat has been observed following 1 mg/kg dose
Type: functional
Design: scale not given: the % may be the effect or the level left
Result type: Control (%)
Unit % implied. Number only.

Give me measured Control, please, for this compound: C=CCN1CC[C@@H]2c3cccc(OC)c3CC[C@H]21 (racemic) 61

Give me measured Control, please, for this compound: C=CCN1CCC2c3cccc(OC)c3CC[C@H]21 (mixture of isomers) 98

Give me measured Control, please, for this compound: C=CCN1CC[C@H]2c3c(cccc3OC)CC[C@H]21 (racemic) 59

Give me measured Control, please, for this compound: C=CCN1CCC2c3c(cccc3OC)CC[C@H]21 (single isomer, unassigned; (-)) 55

Give me measured Control, please, for this compound: CCCN1[C@H](C)CC2c3c(cccc3OC)CC[C@H]21 (mixture of isomers) 65

Give me measured Control, please, for this compound: C=CCN1CC[C@H]2c3ccccc3CC[C@H]21 (racemic) 60

Give me measured Control, please, for this compound: CCCN1[C@@H]2CCc3cccc(OC)c3C2C[C@@H]1C (mixture of isomers) 73

---

Molecular target: D(2) dopamine receptor (Rattus norvegicus)
Sequence (P61169 whole entry): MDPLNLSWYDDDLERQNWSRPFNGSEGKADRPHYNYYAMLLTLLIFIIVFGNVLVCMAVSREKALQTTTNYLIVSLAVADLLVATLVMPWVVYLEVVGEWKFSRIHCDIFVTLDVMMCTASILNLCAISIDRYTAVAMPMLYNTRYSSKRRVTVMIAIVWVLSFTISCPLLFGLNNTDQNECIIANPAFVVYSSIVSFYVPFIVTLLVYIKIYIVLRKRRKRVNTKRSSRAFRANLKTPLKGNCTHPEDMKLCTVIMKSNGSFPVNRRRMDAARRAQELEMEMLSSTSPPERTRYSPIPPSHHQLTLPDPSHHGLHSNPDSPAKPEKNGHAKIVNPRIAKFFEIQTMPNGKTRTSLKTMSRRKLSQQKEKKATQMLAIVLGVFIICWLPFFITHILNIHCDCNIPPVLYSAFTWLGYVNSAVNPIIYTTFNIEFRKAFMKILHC
Assay: Compound was evaluated for the binding affinity against [3H]U-86,170-labeled dopamine receptor D2 in cloned CHO cells
Assay type: cell-based
Result type: pKi
// pKi is dimensionless: -log10 of concentration (M)

Give me measured pKi, please, for this compound: C=CCN1CC[C@H]2c3c(O)cccc3CC[C@H]21 (racemic) 6.82

Give me measured pKi, please, for this compound: CCCN1CC[C@H]2c3ccccc3CC[C@H]21 (racemic) 6.26

---

Test system: Mus musculus
Test: Antagonism of apomorphine effects for 0-10 minutes in reserpinized mice following 0.4 umol/kg i.p.
Assay type: functional
Set-up: unit not given beside the values
I'd be grateful if you could share measured Locomotor activity for these entries.
Give the value as a plain number.

Give me measured Locomotor activity, please, for this molecule: C=CCN1CC[C@@H]2c3c(cccc3OC)CC[C@H]21 (racemic) 65

Give me measured Locomotor activity, please, for this molecule: C=CCN1CCC2c3cccc(O)c3CC[C@H]21 (single isomer, unassigned; (-)) 110

Give me measured Locomotor activity, please, for this molecule: C=CCN1CCC2c3c(cccc3OC)CC[C@@H]21 (single isomer, unassigned; (+)) 83

Give me measured Locomotor activity, please, for this molecule: CCCN1CC[C@H]2c3c(cccc3OC)CC[C@H]21 60

Give me measured Locomotor activity, please, for this molecule: C=CCN1CCC2c3cccc(OC)c3CC[C@H]21 (mixture of isomers) 91

Give me measured Locomotor activity, please, for this molecule: C=CCN1CC[C@H]2c3cccc(O)c3CC[C@H]21 (racemic) 101

Give me measured Locomotor activity, please, for this molecule: C=CCN1CC[C@@H]2c3cccc(OC)c3CC[C@H]21 (racemic) 78

Give me measured Locomotor activity, please, for this molecule: CCCN1CC[C@@H]2c3cccc(OC)c3CC[C@H]21 (racemic) 87

Give me measured Locomotor activity, please, for this molecule: C=CCN1CCC2c3c(cccc3OC)CC[C@H]21 (single isomer, unassigned; (-)) 29

Give me measured Locomotor activity, please, for this molecule: CCCN1CC[C@@H]2c3ccccc3CC[C@H]21 (racemic) 41

Give me measured Locomotor activity, please, for this molecule: C=CCN1CC[C@@H]2c3cccc(O)c3CC[C@H]21 (racemic) 65

Give me measured Locomotor activity, please, for this molecule: C=CCN1CCC2c3cccc(O)c3CC[C@@H]21 (single isomer, unassigned; (+)) 50

Give me measured Locomotor activity, please, for this molecule: C=CCN1CC[C@@H]2c3c(O)cccc3CC[C@H]21 (racemic) 46

Give me measured Locomotor activity, please, for this molecule: C=CCN1CC[C@H]2c3c(O)cccc3CC[C@H]21 (racemic) 56

Give me measured Locomotor activity, please, for this molecule: CCCN1CC[C@@H]2c3cccc(O)c3CC[C@H]21 (racemic) 54

Give me measured Locomotor activity, please, for this molecule: C=CCN1CC[C@H]2c3cccc(OC)c3CC[C@H]21 164

Give me measured Locomotor activity, please, for this molecule: C=CCN1CC[C@H]2c3c(cccc3OC)CC[C@H]21 (racemic) 96

---

System: Rattus norvegicus
Assay: Inhibition of firing rates of dopaminergic neurons in the substantia nigra pars compacta by intravenous injection in rats.
Assay type: functional
Settings: Rattus norvegicus, Substantia nigra pars compacta, iv; read-out: ED50
One threshold, 1 µmol/kg, splits the recorded ED50 values: lower ones are label 1, equal or higher ones are label 0.

Does the reported ED50 of C=CCN1CC[C@@H]2c3cccc(OC)c3CC[C@@H]21 stay below 1 µmol/kg? label 0

Does the reported ED50 of CN1CCc2cccc3c2[C@H]1Cc1ccc(O)c(O)c1-3 stay below 1 µmol/kg? label 1

Does the reported ED50 of C=CCN1CCC2c3c(cccc3OC)CC[C@H]21 (single isomer, unassigned; (-)) stay below 1 µmol/kg? label 1

Does the reported ED50 of CCCN1[C@H](C)CC2c3c(cccc3OC)CC[C@H]21 (mixture of isomers) stay below 1 µmol/kg? label 0

Does the reported ED50 of C=CCN1CCC2c3cccc(O)c3CC[C@@H]21 (single isomer, unassigned; (+)) stay below 1 µmol/kg? label 0

Does the reported ED50 of CCCN1CC[C@@H]2c3cccc(O)c3CC[C@H]21 (racemic) stay below 1 µmol/kg? label 1

Does the reported ED50 of C=CCN1CC[C@@H]2c3cccc(O)c3CC[C@H]21 (racemic) stay below 1 µmol/kg? label 1

---

Test system: Mus musculus
Assay: Effective dose on hypothermia in mouse when administered through peroral route
Assay type: functional
Conditions: po
Result type: ED50 (µmol/kg)
Unit µmol/kg implied. Number only.

Give ED50 only, for CCCN1[C@@H]2CCc3cccc(OC)c3C2C[C@@H]1C (mixture of isomers) , using Mus musculus data. 338

Give ED50 only, for C=CCN1CC[C@H]2c3c(cccc3OC)CC[C@H]21 (racemic) , using Mus musculus data. 101

Give ED50 only, for CCCN1CC[C@H]2c3c(O)cccc3CC[C@H]21 , using Mus musculus data. 4.9

Give ED50 only, for C=CCN1CC[C@H]2c3ccccc3CC[C@H]21 (racemic) , using Mus musculus data. 69

Give ED50 only, for CCCN1CC[C@@H]2c3c(O)cccc3CC[C@@H]21 , using Mus musculus data. 21

Give ED50 only, for CCCN1CCC2c3c(O)cccc3CCC21 (racemic) , using Mus musculus data. 154

Give ED50 only, for CCCN1[C@H](C)CC2c3c(cccc3OC)CC[C@H]21 (mixture of isomers) , using Mus musculus data. 104

Give ED50 only, for CCCN1CCC2c3c(cccc3OC)CCC21 (racemic) , using Mus musculus data. 109

Origin of the recorded values: ChEMBL document CHEMBL1127015
